System: U-251
run_description: NCI tumour cell line growth inhibition, 48 h
Activity calls are given as the source filed them. No stated cut-off is given here; in the data, active = GI50 up to about 1.1 µM and inactive = higher.
assay_readout: GI50

> print(dat)
                                   compound  assay.readout      reported.result
1  COc1cc2oc3c(c(=O)c2c(O)c1/C=C/C(C)C)C(C=C(C)C)Oc1cc(O)ccc1-3 (stereo unspecified)           GI50   16.7 µM (inactive)
2  O=C(COc1ccc(OCC(=O)N2C(=O)CS/C2=N\c2ccccc2)cc1)N1C(=O)CS/C1=N\c1ccccc1           GI50   31.8 µM (inactive)
3             O=C(/C=C/c1ccccc1O)c1ccccc1Cl           GI50   39.9 µM (inactive)
4  COC(=O)C1=C(O)C(C(=O)OC)[C@]2(O)[C@H](C(=O)OC)[C@H]1C[C@@H](c1ccc(O)cc1)[C@H]2C(=O)OC (stereo partly specified)           GI50   18.3 µM (inactive)
5  COc1cc(NCc2ccc3nc(OC)c(OC)nc3c2)cc(OC)c1OC           GI50  > 100 µM (inactive)

Next up:
Ask: Dear colleague, I am looking for the recorded GI50 of the following compound: CCC(CO)Nc1nc(NCc2ccccc2)c2ncn(C(C)C)c2n1 (stereo not drawn) [(RS)-ROSCOVITINE]
Result: 27.9 µM (inactive)

* * *

System: NCI-H522
run_description: NCI tumour cell line growth inhibition, 48 h
Calls of active or inactive are those of the source. No stated cut-off is given here; in the data, active = GI50 up to about 1.1 µM and inactive = higher. Residues, ends and D or L forms follow the SMILES beside them. *: point of attachment. X38 = O=C(c1ccc(-c2ccc(Cl)cc2Cl)o1)*
Reported GI50 values for a set of molecules

Known results for molecules:
molecule	GI50
CN(C)c1ccc(/N=N/c2ccccn2)cc1	38.7 µM (inactive)
CCOc1ccccc1C=C1c2ccccc2C(=O)c2ccccc21	2.36 µM (inactive)
CS(=O)(=O)O.[Ag]	1.92 µM (inactive)

Ask: Dear colleague, I am looking for the recorded GI50 of the following molecule: `OC[C@H]1O[C@@H](n2cnc3cncnc32)[C@H](O)[C@@H]1O`
Result: 2.1 µM (inactive)

Ask: Dear colleague, I am looking for the recorded GI50 of the following molecule: `O=C1c2c(ccc3c2CCCC3)CC12Cc1ccc3c(c1C2=O)CCCC3`
Result: > 100 µM (inactive)

Ask: Dear colleague, I am looking for the recorded GI50 of the following molecule: COC(=O)C(CC(C)C)NC(=O)C(Cc1ccccc1)NC(=O)C1CCCN1C(=O)C(CO)NC(=O)c1ccc(-c2ccc(Cl)cc2Cl)o1 (stereo not given) (X38-SPFL-OMe; configuration not given here)
Result: 28.1 µM (inactive)

* * *

Tested on: UACC-257
run_description: NCI tumour cell line growth inhibition, 48 h
Activity calls are given as the source filed them. No stated cut-off is given here; in the data, active = GI50 up to about 1.1 µM and inactive = higher.
assay_readout: GI50

Known results for compounds:
> print(dat)
                                   compound      reported.result
1               O=C(O)C1=CCCc2ccc3ccccc3c21  > 100 µM (inactive)
2  O=C(Cl)c1cc([N+](=O)[O-])cc([N+](=O)[O-])c1  > 100 µM (inactive)
3           CCOC(=O)c1cn2c(n1)sc1cc(F)ccc12  > 100 µM (inactive)
4  CCOC(=O)c1nc2ccccc2nc1NCc1cc(OC)c(OC)c(OC)c1     75 µM (inactive)
5  CCCCN1C(=O)CC2[C@@H]3CCc4cc(OC(C)=O)ccc4C3CC[C@]2(C)C1=O (stereo not given in full)   > 10 µM (inactive)
6  COc1cc2c3c(c1OC)C(=O)C(=O)C1=C3N(CCC1)CC2   28.6 µM (inactive)
7  O=C1C/C(=N/c2ccc(Cl)cc2)C(c2ccccc2)N1c1ccccc1 (stereo not given)   17.4 µM (inactive)
8  COc1ccc(NS(=O)(=O)c2ccc3ncn(NS(=O)(=O)c4ccc(I)cc4)c(=O)c3c2)cc1  > 100 µM (inactive)
9  CC(O)c1cc2c(s1)C(=O)c1sccc1C2=O (stereo not given)   0.0183 µM (active)

Next up:
Ask: Dear colleague, I am looking for the recorded GI50 of the following compound: `O=C1/C(=C/c2cccc([N+](=O)[O-])c2)Sc2scc(-c3ccc([N+](=O)[O-])cc3)[n+]21`
Result: 21.8 µM (inactive)

* * *

System: LOX IMVI
run_description: NCI tumour cell line growth inhibition, 48 h
The source made the active and inactive calls. Rule as the data show it: active = GI50 up to about 1.1 µM and inactive = higher. Residues, ends and D or L forms follow the SMILES beside them. *: point of attachment. X38 = O=C(c1ccc(-c2ccc(Cl)cc2Cl)o1)*
Reported GI50 values for a set of molecules

Known results for molecules:
molecule	subject_of_test	GI50
COC(=O)C(CC(C)C)NC(=O)C(Cc1ccccc1)NC(=O)C1CCCN1C(=O)C(CO)NC(=O)c1ccc(-c2ccc(Cl)cc2Cl)o1 (configuration not stated) (X38-SPFL-OMe; configuration not given here)	LOX IMVI	21.8 µM (inactive)
Cc1cc(CC(O)(C(F)(F)F)C(F)(F)F)cc(CC(O)(C(F)(F)F)C(F)(F)F)n1	LOX IMVI	2.42 µM (inactive)

Ask: Please provide the recorded GI50 for `COc1cc2c(cc1OC)C1Cc3cc(OC)c(OC)cc3C(C2)N1C` , tested on LOX IMVI.
Result: 48 µM (inactive)

Ask: Please provide the recorded GI50 for O=P1(NCCCl)OCCC(OO)N1CCCl (configuration not stated) , tested on LOX IMVI.
Result: 1.82 µM (inactive)

Ask: Please provide the recorded GI50 for `CN(C)CCSc1cccc(-c2cc(-c3cccc(SCCN(C)C)c3)nc(SCCN(C)C)n2)c1` , tested on LOX IMVI.
Result: 1.64 µM (inactive)

* * *

Test system: MCF7
run_description: NCI tumour cell line growth inhibition, 48 h
Active and inactive are the calls of the source. No stated cut-off is given here; in the data, active = GI50 up to about 1.1 µM and inactive = higher.
Tick one outcome: active, inactive

compound	discrete_label
COc1ccc(C2=CN3CCC[C@H]3C=C2c2cc(O)c(OC)c(OC)c2)cc1OC	active

Ask: How was C=C1C(=O)OC2CC(C)C(C(CC(C)=O)OC(C)=O)=CCC12 (centres undefined) classified in this test?
Result: inactive

Ask: How was `O=C(COc1ccc(OCC(=O)N2C(=O)CS/C2=N\c2ccccc2)cc1)N1C(=O)CS/C1=N\c1ccccc1` classified in this test?
Result: inactive

Ask: How was `COc1cc2c3c(c1OC)C(=O)C(=O)C1=C3N(CCC1)CC2` classified in this test?
Result: inactive

Ask: How was `CC(=O)NCCSC(=O)c1ccccc1` classified in this test?
Result: active

Ask: How was C=C(C(=O)OC1C(CO)OC(OCC2CC[C@@H]3C[C@]4(OC(=O)C3=C)C(C)=CC(=O)C24)C(O)C1O)[C@@H]1CCC(CO)C2C(=O)C=C(C)[C@@]2(O)C1 (some centres undefined) classified in this test?
Result: inactive

Ask: How was `OCCN(CCO)CCn1cnc2c(NCc3ccccc3)ncnc21` classified in this test?
Result: inactive

Ask: How was `CCOC(CCCN1CCC2(CC1)C(=O)N(C)CN2c1ccccc1)(OCC)c1ccc(F)cc1` classified in this test?
Result: inactive

Ask: How was `COc1ccc(CCCCl)c(C2=NCCc3ccccc32)c1` classified in this test?
Result: inactive

* * *

System: SF-539
run_description: NCI tumour cell line growth inhibition, 48 h
Active and inactive are the calls of the source. No stated cut-off is given here; in the data, active = GI50 up to about 1.1 µM and inactive = higher. Residues, ends and D or L forms follow the SMILES beside them. *: point of attachment. X38 = O=C(c1ccc(-c2ccc(Cl)cc2Cl)o1)*
Tick one outcome: active, inactive

Worked cases, answers included:
compound	discrete_label
O=C(CC(=O)N1N=C(N(c2ccccc2)c2ccccc2)CC1c1ccccc1)Nc1cccc(Cl)c1 (centres undefined)	inactive
COC(=O)C(CC(C)C)NC(=O)C(Cc1ccccc1)NC(=O)C1CCCN1C(=O)C(CO)NC(=O)c1ccc(-c2ccc(Cl)cc2Cl)o1 (centres undefined) (X38-SPFL-OMe; configuration not given here)	inactive
O=C1OC2C(O)C(=O)OC2C1O (centres undefined)	inactive
CCCCCC(=O)N[C@H]1CCc2cc(OC)c(OC)c(OC)c2-c2ccc(SC)c(=O)cc21	active

Please find the next compound below.
Ask: How was O=C1/C(=C/c2ccc(Cl)cc2)CCC1CN1CCOCC1 (centres undefined) classified in this test?
Result: inactive

* * *

Test system: 786-0
run_description: NCI tumour cell line growth inhibition, 48 h
Active and inactive are the calls of the source. Cut-off read from the data, not from the text of the source: active = GI50 up to about 1.1 µM and inactive = higher.
assay_readout: GI50

Ask: Dear colleague, I am looking for the recorded GI50 of the following molecule: `C=C(CN(C)C)C(=O)c1ccc(OC)cc1`
Result: 1.72 µM (inactive)

* * *

Test system: HCT-116
run_description: NCI tumour cell line growth inhibition, 48 h
The source made the active and inactive calls. No stated cut-off is given here; in the data, active = GI50 up to about 1.1 µM and inactive = higher.
Tick one outcome: 1 (active), -1 (inactive)

Worked cases, answers included:
compound	subject_of_test	discrete_label
COc1cc2nc3n(c(=O)c2cc1OC)-c1ccc([N+](=O)[O-])cc1C3=O	HCT-116	-1
O=C(CC(=O)N1N=C(N(c2ccccc2)c2ccccc2)CC1c1ccccc1)Nc1cccc(Cl)c1 (configuration not stated)	HCT-116	-1
N#CNc1nc(N)c(-c2ccc(Cl)cc2)c(C(=O)Nc2nccs2)n1	HCT-116	-1
Cc1nc2c(s/c(=N\N)n2-c2ccccc2)c(=O)n1C	HCT-116	-1
O=C1NC(=O)[C@@]2(CC[C@@H](O)C2)c2ccncc21 [SESBANINE]	HCT-116	-1

Ask: How was NC(=O)C1CCCNC1 (configuration not stated) classified in this test?
Result: -1

Ask: How was CN1C(OCc2ccccc2)c2c(ccc3c2OCO3)C2C=Cc3cc4c(cc3C21)OCO4 (configuration not stated) classified in this test?
Result: 1

Ask: How was CC1=C(N2CC2)C(=O)c2nc3n(c2C1=O)CCC3OC(=O)CCl (configuration not stated) classified in this test?
Result: 1

Ask: How was `O=C1/C(=C/c2cccc([N+](=O)[O-])c2)Sc2scc(-c3ccc([N+](=O)[O-])cc3)[n+]21` classified in this test?
Result: -1

Ask: How was `CCOc1ccccc1C=C1c2ccccc2C(=O)c2ccccc21` classified in this test?
Result: -1

Ask: How was `COc1cc2c(cc1OC)C1Cc3cc(OC)c(OC)cc3C(C2)N1C` classified in this test?
Result: -1

Ask: How was `CCOC(=O)Cn1nnc2cc(Nc3nc4ccccc4nc3C(=O)OCC)ccc21` classified in this test?
Result: -1
